All values here come from the supplement of paper PMC6555819.

system: PPARg:RXRa 90nM:30nM, anti-RXR (NR concentration 90 nM, RXRa partner concentration 30 nM); assay: PBM binding z-score (relative to random genomic background probes); higher = stronger binding; sequences stand for … in GC…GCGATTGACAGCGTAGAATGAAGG
reported.endpoint: PBM binding z-score

macromolecule.sequence | result.value
CAAAGTAGGTCAAAGGTCAAAGTCGAGCCAACCA | 13.2
TCTGCTAGGTCATTTGGTCAGCTAACGAGCTGCC | 2.37
ATATGTAGGTTATCGAGTCATTCAGTTTGCGCAT | 3.27
CATACAGAGTCAGCTAGGCCAGAGTAGGGACGGC | -0.479
ACTAGCAGGCCAAGGTTCACTCAAGATTAGTCCG | 6.29
CGTCCAAGGTCAAAGGTCAGTGATGAGATGACGG | 9.31
TCTGCTAGGTCAACGATGGTGAGCTAATCTGCTA | 2.39
TCTTGTAGATCAAAGGTTACGAAAGCCGAAGCCT | 8.98
